Values compiled from patent US8796259B2.

# SYSTEM_TESTED: Axl (Homo sapiens, UniProt P30530)
# Construct: endogenous in cells; host or cells: HeLa cells
# Sequence (P30530 26-894): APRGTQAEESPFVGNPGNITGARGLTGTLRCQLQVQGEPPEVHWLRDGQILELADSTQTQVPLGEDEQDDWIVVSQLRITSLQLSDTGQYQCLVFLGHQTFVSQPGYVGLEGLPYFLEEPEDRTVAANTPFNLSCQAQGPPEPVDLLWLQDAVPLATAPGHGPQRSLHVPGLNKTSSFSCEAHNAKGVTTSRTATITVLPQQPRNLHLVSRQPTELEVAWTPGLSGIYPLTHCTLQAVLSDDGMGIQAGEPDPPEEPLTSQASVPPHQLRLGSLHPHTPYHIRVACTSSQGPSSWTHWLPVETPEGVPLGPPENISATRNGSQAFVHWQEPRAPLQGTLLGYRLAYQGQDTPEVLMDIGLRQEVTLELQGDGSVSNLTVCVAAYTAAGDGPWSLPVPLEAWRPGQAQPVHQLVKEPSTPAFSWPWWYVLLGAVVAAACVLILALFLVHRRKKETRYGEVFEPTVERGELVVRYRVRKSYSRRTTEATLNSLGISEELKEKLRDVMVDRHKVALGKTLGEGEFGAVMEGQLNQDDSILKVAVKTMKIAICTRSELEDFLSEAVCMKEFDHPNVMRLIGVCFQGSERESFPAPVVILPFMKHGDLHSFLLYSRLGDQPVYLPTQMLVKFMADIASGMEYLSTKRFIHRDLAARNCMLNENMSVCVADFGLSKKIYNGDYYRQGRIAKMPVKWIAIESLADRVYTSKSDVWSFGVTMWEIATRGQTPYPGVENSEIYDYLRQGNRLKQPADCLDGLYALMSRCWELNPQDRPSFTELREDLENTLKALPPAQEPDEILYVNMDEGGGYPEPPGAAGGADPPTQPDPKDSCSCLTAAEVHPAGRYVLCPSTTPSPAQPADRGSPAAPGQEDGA
# RUN_DESCRIPTION: Phospho-Akt in-cell Western assay (inhibition of Axl activity, Axl-antibody cross-linking stimulation)
# Type: cell-based
# RECORDED_CONDITIONS: Hela cells, phospho-Akt readout; compounds of formula (Ib), Table 2
Measured IC50 of individual entries
OBSERVED_PROPERTY: IC50

>>> observed_result("Cc1cc(Nc2nc(N)nn2-c2nc(Cl)nc3c(C)csc23)cnc1N1CCC(N2CCCC2)CC1")
"1 to 10 µM"
>>> observed_result("Cc1csc2c(-n3nc(N)nc3Nc3ccc(C=CCN4CCC(N5CCN(C)CC5)CC4)nc3)ncnc12")
"< 1 µM"
>>> observed_result("Cc1cc(Nc2nc(N)nn2-c2nnc(C)c3ccsc23)cnc1N1CCN([C@H]2C[C@@H]3CC[C@H]2C3)CC1")
"> 20 µM"

---

# SYSTEM_TESTED: Axl (Homo sapiens)
# Construct: endogenous in cells; host or cells: HeLa cells
# RUN_DESCRIPTION: Phospho-Akt in-cell Western assay (inhibition of Axl activity, Axl-antibody cross-linking stimulation)
# Assay type: cell-based
# RECORDED_CONDITIONS: Hela cells, phospho-Akt readout; compounds of formula (Ia), Table 1
OBSERVED_PROPERTY: IC50

>>> observed_result("Cc1cc(Nc2nc(N)n(-c3ncnc4ccc(F)cc34)n2)cnc1N1CCC(N2CCCC2)CC1")
"< 1000 nM"
>>> observed_result("Cc1csc2c(-n3nc(Nc4ccc(N5CCN(CC6CC6)CC5)nc4)nc3N)ncnc12")
"< 1000 nM"
>>> observed_result("Cc1csc2c(-n3nc(Nc4cnc5c(c4)CCN(C4CCCC4)CC5)nc3N)nc(Cl)nc12")
"1000 to 10000 nM"
>>> observed_result("CCN(CC)C1CCN(c2ccc(Nc3nc(N)n(-c4nc(Cl)nc5c(C)csc45)n3)cn2)C1 (centres unmarked)")
"< 1000 nM"
>>> observed_result("Nc1nc(Nc2ccc3oc(CN4CCCC4)nc3c2)nn1-c1ncnc2ccc(Cl)cc12")
"1000 to 10000 nM"
>>> observed_result("COc1cc2ncnc(-n3nc(Nc4ccc(N5CCC(N6CCCC6)CC5)nc4)nc3N)c2cc1OC")
"< 1000 nM"
>>> observed_result("Cc1csc2c(-n3nc(Nc4cnc5c(c4)CC(NC4CCN(C)CC4)CC5)nc3N)ncnc12 (centres unmarked)")
"< 1000 nM"
>>> observed_result("CN1CCc2ncc(Nc3nc(N)n(-c4nccc5ccccc45)n3)cc2C1")
"< 1000 nM"

---

# SYSTEM_TESTED: Axl (Homo sapiens)
# Construct: endogenous in cells; host or cells: HeLa cells
# Sequence (P30530 26-894): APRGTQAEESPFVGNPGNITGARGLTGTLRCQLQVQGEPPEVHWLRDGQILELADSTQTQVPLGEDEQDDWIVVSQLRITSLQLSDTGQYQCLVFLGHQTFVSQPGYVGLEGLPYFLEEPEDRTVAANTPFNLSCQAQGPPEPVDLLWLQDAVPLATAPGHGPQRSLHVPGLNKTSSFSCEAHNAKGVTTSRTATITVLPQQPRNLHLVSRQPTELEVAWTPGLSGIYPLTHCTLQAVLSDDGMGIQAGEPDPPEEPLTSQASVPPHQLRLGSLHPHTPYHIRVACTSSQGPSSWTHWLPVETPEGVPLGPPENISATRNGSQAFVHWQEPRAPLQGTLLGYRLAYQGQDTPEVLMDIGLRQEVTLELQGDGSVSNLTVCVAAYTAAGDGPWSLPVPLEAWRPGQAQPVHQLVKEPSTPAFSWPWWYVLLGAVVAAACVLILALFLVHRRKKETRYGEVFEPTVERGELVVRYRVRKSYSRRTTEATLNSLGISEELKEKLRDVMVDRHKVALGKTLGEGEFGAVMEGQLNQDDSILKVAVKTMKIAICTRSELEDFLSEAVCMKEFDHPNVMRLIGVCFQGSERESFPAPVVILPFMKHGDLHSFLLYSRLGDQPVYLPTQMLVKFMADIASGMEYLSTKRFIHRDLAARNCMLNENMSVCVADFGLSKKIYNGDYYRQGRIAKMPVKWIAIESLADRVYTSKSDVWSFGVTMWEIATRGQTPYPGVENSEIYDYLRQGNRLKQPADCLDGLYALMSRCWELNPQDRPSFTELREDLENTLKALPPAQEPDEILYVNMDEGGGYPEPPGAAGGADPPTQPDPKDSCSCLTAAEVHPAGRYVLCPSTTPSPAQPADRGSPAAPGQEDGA
# RUN_DESCRIPTION: Phospho-Akt in-cell Western assay (inhibition of Axl activity, Axl-antibody cross-linking stimulation)
# Format: cell-based
# RECORDED_CONDITIONS: Hela cells, phospho-Akt readout; compounds of formula (Ia), Table 1
Measured IC50 of individual entries
OBSERVED_PROPERTY: IC50

>>> observed_result("Cc1csc2c(-n3nc(Nc4ccc(N5CCN(C6CC7CCC6C7)CC5)nc4)nc3N)nc(Cl)nc12 (stereo not shown) [compound 24]")
"< 1000 nM"
>>> observed_result("Cc1csc2c(-n3nc(Nc4cnc5c(c4)CN(C(=O)C4CCNCC4)CC5)nc3N)nc(Cl)nc12 [compound 87]")
"> 20000 nM"
>>> observed_result("Cc1csc2c(-n3nc(Nc4ccc(C=CCN5CCC(N6CCCC6)CC5)nc4)nc3N)ncnc12 [compound 122]")
"< 1000 nM"
>>> observed_result("Cc1csc2c(-n3nc(Nc4cnc5c(c4)CC(N4CCCC4)CC5)nc3N)nc(Cl)nc12 (stereo not shown) [compound 82]")
"< 1000 nM"
>>> observed_result("Cc1csc2c(-n3nc(Nc4cnc5c(c4)CN(C4CCCC4)CC5)nc3N)nc(Cl)nc12 [compound 52]")
"< 1000 nM"
>>> observed_result("Cc1csc2c(-n3nc(Nc4cnc(N5CCN([C@H]6CC7CCC6C7)CC5)c(Cl)c4)nc3N)nc(Cl)nc12 (stereo partly shown) [compound 109]")
"1000 to 10000 nM"
>>> observed_result("COc1cc2ncnc(-n3nc(Nc4cnc(N5CCC(N6CCCC6)CC5)c(C)c4)nc3N)c2cc1OC [compound 42]")
"< 1000 nM"

---

Measured IC50 of individual entries
# SYSTEM_TESTED: Axl (Homo sapiens)
# Construct: endogenous in cells; host or cells: HeLa cells
# RUN_DESCRIPTION: Phospho-Akt in-cell Western assay (inhibition of Axl activity, Axl-antibody cross-linking stimulation)
# Type: cell-based
# RECORDED_CONDITIONS: Hela cells, phospho-Akt readout; compounds of formula (Ia), Table 1
# Description: The compounds of the invention were tested in the following assay for their ability to inhibit Axl activity. Phospho-Akt in-Cell Western Assay […]
OBSERVED_PROPERTY: IC50

>>> observed_result("Cc1cc(Nc2nc(N)n(-c3nc(Cl)nc4c(C)csc34)n2)cnc1N1CCN(CC2CC2)CC1")
"< 1000 nM"
>>> observed_result("COc1cc2ncnc(-n3nc(Nc4ccc(N5CCC(N6CCCCC6)CC5)nc4)nc3N)c2cc1OC")
"< 1000 nM"
>>> observed_result("Cc1csc2c(-n3nc(Nc4cnc(N5CCN([C@H]6CC7CCC6C7)CC5)c(Cl)c4)nc3N)ncnc12 (stereo partly shown)")
"10000 to 20000 nM"
>>> observed_result("Cc1csc2c(-n3nc(Nc4cnc5c(c4)CC(NC4CCCC4)CC5)nc3N)nc(Cl)nc12 (stereo not shown)")
"< 1000 nM"
>>> observed_result("Cc1csc2c(-n3nc(Nc4ccc(N5CCCN(C6CCCC6)CC5)nc4)nc3N)nc(Cl)nc12")
"< 1000 nM"
>>> observed_result("Cc1csc2c(-n3nc(Nc4cnc5c(c4)CC(NC(=O)C4CCN(C)CC4)CC5)nc3N)ncnc12 (stereo not shown)")
"< 1000 nM"
>>> observed_result("COc1cc2ncnc(-n3nc(Nc4cnc(N5CCC(CN6CCCCC6)CC5)nc4)nc3N)c2cc1OC")
"1000 to 10000 nM"
